- system.name: CRTH2 receptor (Homo sapiens, UniProt Q9Y5Y4)
- Sequence (Q9Y5Y4 1-395): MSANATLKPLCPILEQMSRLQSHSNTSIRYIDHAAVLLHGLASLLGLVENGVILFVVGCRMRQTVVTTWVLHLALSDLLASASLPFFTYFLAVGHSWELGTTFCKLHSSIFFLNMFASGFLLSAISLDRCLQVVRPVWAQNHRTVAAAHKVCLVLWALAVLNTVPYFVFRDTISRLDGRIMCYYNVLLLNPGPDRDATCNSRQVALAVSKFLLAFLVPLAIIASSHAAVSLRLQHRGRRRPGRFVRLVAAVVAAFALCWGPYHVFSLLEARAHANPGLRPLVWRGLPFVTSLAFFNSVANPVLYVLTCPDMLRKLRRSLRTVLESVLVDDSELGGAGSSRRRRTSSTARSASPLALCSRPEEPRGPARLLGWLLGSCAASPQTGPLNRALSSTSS
- test.description: Functional assay: calcium mobilisation
- measurement.setup: CHO-K1 cells co-expressing CRTH2 receptor and Gα16; antagonism of PGD2 at its EC80
Catalogue of compounds with associated IC50

Answer with the recorded IC50 for the compound listed here: `Cc1nc2c(Cl)ccc(CC(=O)O)c2c(C)c1Sc1ccc(Cl)cc1`
< 100 nM

Answer with the recorded IC50 for the compound listed here: `Cc1nc2c(Cl)ccc(OCC(=O)O)c2c(C)c1Cc1ccc(S(C)(=O)=O)cc1`
< 1000 nM

Answer with the recorded IC50 for the compound listed here: `Cc1nc2c(Cl)ccc(-c3nnn[nH]3)c2c(C)c1Cc1ccc(Cl)cc1`
< 1000 nM

Answer with the recorded IC50 for the compound listed here: `Cc1nc2c(Cl)ccc(OCC(=O)O)c2c(OC(F)F)c1Cc1ccc(F)cc1`
< 100 nM
